- assayed target: T1, mouse α5β1 integrin on CHOK1 stable cells (mouse, UniProt P11688 45-1053; P09055 21-798)
- T1 construct: whole, on cells; Stably expressed on CHOK1 cells; also called mα5β1; CHOK1-mouse α5β1
- T1 sequence (P11688 45-1053, chain 1 of 2): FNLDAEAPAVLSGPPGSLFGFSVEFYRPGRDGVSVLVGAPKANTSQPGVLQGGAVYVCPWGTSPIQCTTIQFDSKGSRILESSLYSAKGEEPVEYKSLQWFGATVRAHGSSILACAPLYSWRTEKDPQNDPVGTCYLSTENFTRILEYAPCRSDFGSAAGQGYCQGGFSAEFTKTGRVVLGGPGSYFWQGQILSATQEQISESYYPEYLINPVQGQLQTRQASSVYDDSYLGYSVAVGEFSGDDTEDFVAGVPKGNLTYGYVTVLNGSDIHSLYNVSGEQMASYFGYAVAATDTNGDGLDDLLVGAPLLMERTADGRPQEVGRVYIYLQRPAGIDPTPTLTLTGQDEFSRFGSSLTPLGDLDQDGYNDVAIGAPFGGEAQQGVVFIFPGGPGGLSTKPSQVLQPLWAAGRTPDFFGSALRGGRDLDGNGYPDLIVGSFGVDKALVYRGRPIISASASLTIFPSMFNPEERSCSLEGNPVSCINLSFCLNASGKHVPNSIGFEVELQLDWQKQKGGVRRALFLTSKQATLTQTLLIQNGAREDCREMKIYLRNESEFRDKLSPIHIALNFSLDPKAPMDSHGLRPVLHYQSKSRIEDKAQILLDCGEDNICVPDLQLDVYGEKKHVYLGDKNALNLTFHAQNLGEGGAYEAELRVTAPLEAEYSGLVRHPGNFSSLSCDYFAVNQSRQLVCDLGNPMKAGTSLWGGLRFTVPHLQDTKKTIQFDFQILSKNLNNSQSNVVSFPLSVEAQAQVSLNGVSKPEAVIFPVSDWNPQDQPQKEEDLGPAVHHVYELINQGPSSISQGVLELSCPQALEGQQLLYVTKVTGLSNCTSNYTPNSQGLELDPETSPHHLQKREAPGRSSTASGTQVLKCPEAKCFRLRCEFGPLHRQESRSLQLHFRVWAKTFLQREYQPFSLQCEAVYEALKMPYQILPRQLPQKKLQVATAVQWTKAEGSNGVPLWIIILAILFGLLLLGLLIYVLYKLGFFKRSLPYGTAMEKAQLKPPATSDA
- T1 sequence (P09055 21-798, chain 2 of 2): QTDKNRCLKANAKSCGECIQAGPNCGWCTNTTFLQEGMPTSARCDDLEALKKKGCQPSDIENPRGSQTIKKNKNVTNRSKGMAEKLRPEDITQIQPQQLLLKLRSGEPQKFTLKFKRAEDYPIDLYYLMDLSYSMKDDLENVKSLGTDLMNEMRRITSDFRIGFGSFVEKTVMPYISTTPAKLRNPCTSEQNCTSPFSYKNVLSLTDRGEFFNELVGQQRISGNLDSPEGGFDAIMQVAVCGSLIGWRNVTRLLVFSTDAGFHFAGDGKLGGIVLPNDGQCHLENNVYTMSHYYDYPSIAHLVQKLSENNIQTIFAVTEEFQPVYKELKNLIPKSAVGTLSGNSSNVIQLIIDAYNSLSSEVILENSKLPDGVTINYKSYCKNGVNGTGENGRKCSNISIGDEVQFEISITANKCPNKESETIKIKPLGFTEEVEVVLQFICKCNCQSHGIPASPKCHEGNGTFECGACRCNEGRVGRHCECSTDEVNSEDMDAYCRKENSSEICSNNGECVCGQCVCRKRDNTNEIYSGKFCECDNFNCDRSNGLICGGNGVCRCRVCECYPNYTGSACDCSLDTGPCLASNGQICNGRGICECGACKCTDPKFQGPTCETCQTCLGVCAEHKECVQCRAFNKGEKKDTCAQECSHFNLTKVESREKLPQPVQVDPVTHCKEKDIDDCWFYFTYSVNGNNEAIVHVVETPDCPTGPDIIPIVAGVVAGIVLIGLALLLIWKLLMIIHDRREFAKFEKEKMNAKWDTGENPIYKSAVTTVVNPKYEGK
- assay procedure: cell-based ELISA (CELISA), CHOK1 cells expressing the integrin
observation type: EC50

For reference, reported EC50 for Ab-31 (antibody, V domains shown) VH: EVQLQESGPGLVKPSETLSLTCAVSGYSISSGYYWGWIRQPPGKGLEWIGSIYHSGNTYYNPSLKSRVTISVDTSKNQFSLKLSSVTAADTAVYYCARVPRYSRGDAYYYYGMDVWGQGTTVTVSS VL: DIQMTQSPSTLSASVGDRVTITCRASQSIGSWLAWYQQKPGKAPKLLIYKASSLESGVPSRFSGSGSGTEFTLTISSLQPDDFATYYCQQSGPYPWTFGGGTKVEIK stands at 1.76 nM

The value of EC50 measured for the binder Ab-32 (antibody, V domains shown) VH: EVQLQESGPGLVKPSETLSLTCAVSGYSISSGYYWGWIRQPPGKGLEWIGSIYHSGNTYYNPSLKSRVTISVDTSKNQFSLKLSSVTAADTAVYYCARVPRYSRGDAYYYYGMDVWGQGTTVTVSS VL: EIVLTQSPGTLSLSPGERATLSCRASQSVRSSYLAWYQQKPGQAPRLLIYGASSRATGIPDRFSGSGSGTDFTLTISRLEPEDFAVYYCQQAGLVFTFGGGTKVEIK turned out to be 0.131 nM

Record summary for Ab-30 (antibody, V domains shown) VH: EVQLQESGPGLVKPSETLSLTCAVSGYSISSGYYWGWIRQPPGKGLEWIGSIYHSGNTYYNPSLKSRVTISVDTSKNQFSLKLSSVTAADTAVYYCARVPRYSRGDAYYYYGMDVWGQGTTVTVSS VL: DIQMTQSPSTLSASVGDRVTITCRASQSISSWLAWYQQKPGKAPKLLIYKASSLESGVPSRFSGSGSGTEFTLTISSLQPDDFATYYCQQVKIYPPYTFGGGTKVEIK : reported EC50 = 0.03 nM

EC50 recorded for this binder, Ab-29 (antibody, V domains shown) VH: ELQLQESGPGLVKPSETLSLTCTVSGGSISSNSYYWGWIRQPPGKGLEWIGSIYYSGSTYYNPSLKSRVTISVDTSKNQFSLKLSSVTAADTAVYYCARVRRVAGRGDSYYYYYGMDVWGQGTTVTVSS VL: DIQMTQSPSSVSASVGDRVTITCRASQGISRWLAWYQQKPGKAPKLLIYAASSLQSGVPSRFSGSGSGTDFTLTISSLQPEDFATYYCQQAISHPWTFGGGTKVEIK , is 0.213 nM
